Reported Percent Effect values are given for each entry in this list.
target: Sialic acid-binding Ig-like lectin 9 (Homo sapiens) (UniProt Q9Y336); experiment: Hs-Siglec9 ALPHAscreen SOP 20170721; set-up: scale not given: direction of the effect not stated beside the values; conditions: 10 µM
Sequence (Q9Y336 whole entry): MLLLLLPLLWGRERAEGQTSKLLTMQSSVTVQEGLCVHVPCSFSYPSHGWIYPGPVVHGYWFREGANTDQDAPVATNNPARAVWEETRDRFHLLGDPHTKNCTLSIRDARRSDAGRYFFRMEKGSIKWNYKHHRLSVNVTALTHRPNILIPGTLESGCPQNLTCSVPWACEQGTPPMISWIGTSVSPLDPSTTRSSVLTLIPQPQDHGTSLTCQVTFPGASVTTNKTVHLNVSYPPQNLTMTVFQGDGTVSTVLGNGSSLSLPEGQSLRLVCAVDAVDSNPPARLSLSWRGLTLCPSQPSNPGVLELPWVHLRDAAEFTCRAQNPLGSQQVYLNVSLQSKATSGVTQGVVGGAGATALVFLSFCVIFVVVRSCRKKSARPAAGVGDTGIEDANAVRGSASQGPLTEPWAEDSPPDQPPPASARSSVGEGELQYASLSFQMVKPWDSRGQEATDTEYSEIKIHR
Quantity: Percent Effect (%)

In [3]: df
Out[3]:
                                   molecule                               target_desc  scale_unit  value_observed
0  CC(C)CN1CCC2(CCN(C(=O)c3ccc(F)cc3)CC2)C1=O  Sialic acid-binding Ig-like lectin 9 (Homo sapiens) (UniProt Q9Y336)           %           0.691
1  Cc1csc(C2CCCN(C(=O)c3cnc4n[nH]c(C)c4c3)C2)n1 (stereo unspecified)  Sialic acid-binding Ig-like lectin 9 (Homo sapiens) (UniProt Q9Y336)           %            6.11
2  Cc1noc(C2CCCN(C(=O)c3ccc(Br)cc3F)C2)n1 (stereo unspecified)  Sialic acid-binding Ig-like lectin 9 (Homo sapiens) (UniProt Q9Y336)           %            2.58
3        COc1ccc2c(O)c(NC(=O)NCC3CC3)cnc2c1  Sialic acid-binding Ig-like lectin 9 (Homo sapiens) (UniProt Q9Y336)           %           -7.59
4  O=C(CN1CCOC(Cn2cccn2)C1)Nc1nncs1 (stereo unspecified)  Sialic acid-binding Ig-like lectin 9 (Homo sapiens) (UniProt Q9Y336)           %           -17.4
5      Cc1ccc(N2CCN(C(=O)COc3ccccc3)CC2)nn1  Sialic acid-binding Ig-like lectin 9 (Homo sapiens) (UniProt Q9Y336)           %           -4.33
